Values compiled from patent US20060063944A1.

# AUC(0-inf) per record follows
Test: AUC measurement in oral administration, test with mice
Type: in vivo
Settings: female, ICR, mouse, plasma, po, 30 mg/kg, 5% gum arabic suspension

>  <COMPOUND>
C[C@]12CC[C@@H]3c4ccc(O)cc4C[C@@H](CCCCCCCCC(CCCC(F)(F)C(F)(F)C(F)(F)C(F)(F)F)C(=O)O)[C@H]3[C@@H]1CCC2=O (single isomer, unassigned) [Compound 1]

>  <UNIT OF MEASUREMENT>
µg·h/mL

>  <AUC(0-inf)>
468

$$$$
>  <COMPOUND>
C[C@]12CC[C@@H]3c4ccc(O)cc4C[C@@H](CCCCCCCCC(CCCC(F)(F)C(F)(F)C(F)(F)C(F)(F)F)C(=O)O)[C@H]3[C@@H]1CC[C@@H]2O (single isomer, unassigned) [Control compound 1, reference compound]

>  <UNIT OF MEASUREMENT>
µg·h/mL

>  <AUC(0-inf)>
274

$$$$

---

Experiment: AUC measurement in oral administration, test with monkeys
Format: in vivo
Conditions: female, cynomolgus monkey, 3 mg/kg, PEG/water/ethanol solution, plasma
OBSERVABLE: AUC(0-inf) (ng·h/mL)

>  <MOLECULE>
C[C@]12CC[C@@H]3c4ccc(O)cc4C[C@@H](CCCCCCCCC(CCCC(F)(F)C(F)(F)C(F)(F)C(F)(F)F)C(=O)O)[C@H]3[C@@H]1CC[C@@H]2O (single isomer, unassigned) [Control compound 1, reference compound]

>  <UNIT OF MEASUREMENT>
ng·h/mL

>  <DATA VALUE>
420

$$$$
>  <MOLECULE>
C#C[C@]1(O)CCC2C3C(CC[C@@]21C)c1ccc(O)cc1C[C@H]3CCCCCCCCC(CCCC(F)(F)C(F)(F)C(F)(F)C(F)(F)F)C(=O)O (single isomer, unassigned) [Compound 4]

>  <UNIT OF MEASUREMENT>
ng·h/mL

>  <DATA VALUE>
3800

$$$$
>  <MOLECULE>
C[C@]12CC[C@@H]3c4ccc(O)cc4C[C@@H](CCCCCCCCC(CCCC(F)(F)C(F)(F)C(F)(F)C(F)(F)F)C(=O)O)[C@H]3[C@@H]1CCC2=O (single isomer, unassigned) [Compound 1]

>  <UNIT OF MEASUREMENT>
ng·h/mL

>  <DATA VALUE>
2420

$$$$

---

Target: intranuclear estrogen receptor (EgR) (Homo sapiens, UniProt P03372)
Construct: endogenous in cells; host or cells: MCF-7 (ATCC)
Sequence (P03372 whole entry): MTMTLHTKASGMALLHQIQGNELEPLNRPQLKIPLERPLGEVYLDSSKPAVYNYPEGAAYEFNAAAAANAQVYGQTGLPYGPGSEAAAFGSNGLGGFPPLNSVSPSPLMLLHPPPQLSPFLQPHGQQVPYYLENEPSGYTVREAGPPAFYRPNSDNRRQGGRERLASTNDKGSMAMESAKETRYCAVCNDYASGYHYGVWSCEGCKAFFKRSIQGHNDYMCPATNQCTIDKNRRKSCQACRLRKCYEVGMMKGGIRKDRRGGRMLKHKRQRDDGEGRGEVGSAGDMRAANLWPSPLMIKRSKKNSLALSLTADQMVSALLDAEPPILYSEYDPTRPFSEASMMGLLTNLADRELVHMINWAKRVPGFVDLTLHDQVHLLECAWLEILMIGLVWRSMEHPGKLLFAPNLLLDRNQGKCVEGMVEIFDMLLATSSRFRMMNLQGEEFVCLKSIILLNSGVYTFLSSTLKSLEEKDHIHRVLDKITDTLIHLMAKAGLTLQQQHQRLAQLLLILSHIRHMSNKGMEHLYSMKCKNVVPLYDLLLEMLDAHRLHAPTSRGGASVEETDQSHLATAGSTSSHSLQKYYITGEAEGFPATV
Assay: Estrogen receptor downregulating activity (intranuclear EgR content in MCF-7)
Format: cell-based
Conditions: MCF-7 cells, 2 days with compound, ER-EIA; read-out: IC50 (intranuclear EgR content)
Catalogue of DC50 readings, one per entry.

>  <COMPOUND>
C#C[C@]1(O)CCC2C3C(CC[C@@]21C)c1ccc(O)cc1C[C@H]3CCCCCCCCC(CCCC(F)(F)C(F)(F)C(F)(F)C(F)(F)F)C(=O)O (single isomer, unassigned) [Compound 5]

>  <SYSTEM TESTED>
intranuclear estrogen receptor (EgR) (Homo sapiens, UniProt P03372)

>  <UNIT OF MEASUREMENT>
nM

>  <DC50>
100

$$$$
>  <COMPOUND>
C[C@]12CC[C@@H]3c4ccc(O)cc4C[C@@H](CCCCCCCCC(CCCC(F)(F)C(F)(F)C(F)(F)C(F)(F)F)C(=O)O)[C@H]3[C@@H]1CCC2=O (single isomer, unassigned) [Compound 2]

>  <SYSTEM TESTED>
intranuclear estrogen receptor (EgR) (Homo sapiens, UniProt P03372)

>  <UNIT OF MEASUREMENT>
nM

>  <DC50>
8.7

$$$$
>  <COMPOUND>
C#C[C@]1(O)CCC2C3C(CC[C@@]21C)c1ccc(O)cc1C[C@H]3CCCCCCCCC(CCCC(F)(F)C(F)(F)C(F)(F)C(F)(F)F)C(=O)O (single isomer, unassigned) [Compound 4]

>  <SYSTEM TESTED>
intranuclear estrogen receptor (EgR) (Homo sapiens, UniProt P03372)

>  <UNIT OF MEASUREMENT>
nM

>  <DC50>
14

$$$$
>  <COMPOUND>
C[C@]12CC[C@@H]3c4ccc(O)cc4C[C@@H](CCCCCCCCC(CCCC(F)(F)C(F)(F)C(F)(F)C(F)(F)F)C(=O)O)[C@H]3[C@@H]1CCC2=O (single isomer, unassigned) [Compound 1]

>  <SYSTEM TESTED>
intranuclear estrogen receptor (EgR) (Homo sapiens, UniProt P03372)

>  <UNIT OF MEASUREMENT>
nM

>  <DC50>
8.4

$$$$
